Data provenance is patent US20250270301A1.

Item-by-item account of koff
Measurement target: T1, full length recombinant human 2N4R tau (human, UniProt P10636 1-758)
T1 construct: bought from rPeptide; pHrodo Red maleimide-labelled where it stands in uptake assays; also called tau1-441; full length tau
T1 sequence (P10636 other isoform, or with tags, fused parts or gaps limits assumed): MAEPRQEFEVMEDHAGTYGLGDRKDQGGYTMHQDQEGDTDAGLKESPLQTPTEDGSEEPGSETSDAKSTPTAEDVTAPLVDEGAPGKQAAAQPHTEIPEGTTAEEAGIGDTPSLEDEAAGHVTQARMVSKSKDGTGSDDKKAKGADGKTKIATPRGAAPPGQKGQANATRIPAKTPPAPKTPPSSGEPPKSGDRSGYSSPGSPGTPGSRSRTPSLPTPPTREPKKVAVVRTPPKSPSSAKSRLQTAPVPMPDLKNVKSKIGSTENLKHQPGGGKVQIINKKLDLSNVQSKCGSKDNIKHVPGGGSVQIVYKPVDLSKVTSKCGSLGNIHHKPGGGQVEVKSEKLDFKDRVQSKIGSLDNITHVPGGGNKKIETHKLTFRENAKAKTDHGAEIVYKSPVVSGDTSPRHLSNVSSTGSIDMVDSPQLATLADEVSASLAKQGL
Experimental details: SPR MCK, IgG on Protein A, tau in flow
From the text: Slight variations in RMAX are considered likely to be due to differences in ligand capture and not reflective of significant variation in antibody binding characteristics. […]

{"columns": ["Binder", "koff, s⁻¹"],
 "data": [
  ["#44 VH3VK4 humanised hIgG1 (antibody, V domains shown, also called VH3Vκ4; Clone VH3VK4 (B)) VH: QVQLQESGPGLVKPSETLSLTCTVSGIDLSSYAMAWVRQAPGKGLEWIGCIDRRGGTFYASWVKGRFTISKTSTTVDLQMTSLTAEDTATYFCARDSGAFDPWGQGTLVTVSS VL: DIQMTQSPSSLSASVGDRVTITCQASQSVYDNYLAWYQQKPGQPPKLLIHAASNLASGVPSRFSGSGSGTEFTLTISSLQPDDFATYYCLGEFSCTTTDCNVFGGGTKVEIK", 0.0618],
  ["#44 VH3VK3 humanised hIgG1 (antibody, V domains shown, also called VH3Vκ3; Clone VH3VK3 (A)) VH: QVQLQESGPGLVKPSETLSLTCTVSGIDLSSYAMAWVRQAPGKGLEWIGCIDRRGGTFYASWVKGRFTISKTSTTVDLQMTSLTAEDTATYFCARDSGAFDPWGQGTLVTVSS VL: DIQMTQSPSSLSASVGDRVTITCQASQSVYDNYLAWYQQKPGQPPKLLIHAASNLASGVPSRFKGSGSGTEFTLTISSLQPDDFATYYCLGEFSCTTTDCNVFGGGTKVEIK", 0.0927],
  ["#44 VH0VK0 chimeric human IgG1 (antibody, V domains shown, rabbit VH and VK on human IgG1; also called VH0Vκ0; Clone #44 hIgG1) VH: QSVEESGGRLVTPGTPLTLTCTVSGIDLSSYAMAWVRQAPGKGLEWIGCIDRRGGTFYASWVKGRFTISKTSTTVDLKMTSLTTEDTATYFCARDSGAFDPWGPGTLVTVSS VL: QIVMTQTPSSVSAAVGGTVTIKCQASQSVYDNYLAWYQQKPGQPPKLLIHAASNLASRVPSRFKGSGSGTQFTLTISDVQCDDAATYYCLGEFSCTTTDCNVFGGGTEVVVK", 0.0107]
]}
